Field IC50: reported value for Leucine-rich repeat serine/threonine-protein kinase 2 (Homo sapiens, UniProt Q5S007); entries drawn from several documents.
assayReadout: IC50

Cc1n[nH]c2ncc(-c3cncc(N4CCOCC4)n3)cc12 :: < 500 nM
Cc1nn(CCCN2CCOCC2)cc1Nc1ncc(Cl)c(NCCCN2CCOCCC2=O)n1 :: > 600 nM
CCc1cc(N2CCN3CCC[C@@H]3C2)ccc1Nc1ncc(C(F)(F)F)c(NCCCN2CCOCCC2=O)n1 :: 1 to 100 nM
Cn1cc(Nc2cc(-c3ccccc3)c3c(C#N)c[nH]c3n2)cn1 :: 97 nM
COc1ccccc1-c1n[nH]c2ncc(-c3ccoc3)cc12 :: < 500 nM
CCNc1cc(Nc2ccc(S(=O)(=O)N3CCOCC3)c3c2OCCO3)nc2[nH]cc(C(F)(F)F)c12 :: 301 to 1000 nM
COc1cc(P2(=O)CCN(C3CC3)CC2)ccc1Nc1cc(NC2CC2)c2c(C(F)(F)F)c[nH]c2n1 :: < 100 nM
CN1CCN(c2ccc(Nc3ncc(C(F)(F)F)c(NCCCN4CCOCCC4=O)n3)c(C3CCCC3)c2)CC1 :: 100 to 300 nM
CCNc1cc(Nc2ccc(P3(=O)CCN(C4COC4)CC3)cc2OC)nc2[nH]cc(C(F)(F)F)c12 :: 101 to 300 nM
Cc1n[nH]c2ncc(-c3ccc(N4CCN(C)CC4)cc3)cc12 :: > 1000 nM
CCc1cc(N2CCNCC2)ccc1Nc1ncc(C(F)(F)F)c(NCCCN2CCCOC2=O)n1 :: 100 to 300 nM
CC(C)Sc1ccc(OC(F)F)c(-c2nn(C)cc2NC(=O)c2cnn3cccnc23)c1 :: 2220 nM
CCN1CC[C@H](n2cc(Nc3ncc(C(F)(F)F)c(NCCCN4CCCC4=O)n3)c(C)n2)C1 :: > 600 nM
Cc1c2c(nn1[C@@H]1CCOC[C@H]1F)OCCCn1nc(Cl)c3cnc(nc31)N2 (single isomer, unassigned) :: 15 nM
CCNc1cc(Nc2ccc(C(=O)N3CC[C@H](N4CCOCC4)C3)c3c2OCC3)nc2[nH]cc(C(F)(F)F)c12 :: < 100 nM
Cc1nn(CCN2CCOCC2)cc1Nc1ncc(C(F)(F)F)c(NCCCN2CCCCC2=O)n1 :: > 600 nM

###

Field IC50: reported value for Leucine-rich repeat serine/threonine-protein kinase 2 (Homo sapiens); entries drawn from several documents.
assayReadout: IC50

Cc1cc(C2CCNCC2)ccc1Nc1ncc(C(F)(F)F)c(NCCCN(C)C(=O)C2CCC2)n1 :: 1 to 100 nM
CC(C)n1cc(-c2cc(-c3ccc4c(c3)CCN4C)cnc2N)nn1 :: 620 nM
Cc1n[nH]c2ncc(Nc3cccc(CN4CCN(CCO)CC4)c3)cc12 :: > 1000 nM
Cc1n[nH]c2ncc(-c3cncc(N4CCN(C)CC4)n3)cc12 :: < 500 nM
c1cnc(N2CCCC2)c(-c2cnc3[nH]ccc3c2)n1 :: > 500 nM
Cc1cc(N2CCNCC2)ccc1Nc1ncc(C(F)(F)F)c(NCCCN2CCCOC2=O)n1 :: 100 to 300 nM
Cc1nn(C2CCN(C3COC3)CC2)cc1Nc1ncc(C(F)(F)F)c(NCCCN2CCCCC2=O)n1 :: 300 to 600 nM
Cc1c2c(nn1[C@@H]1CCOC[C@@H]1C)OCCCn1nc(Cl)c3cnc(nc31)N2 (single isomer, unassigned) :: 44 nM
